Test system: Trichophyton rubrum
Assay: in vitro antifungal activity (MIC80), Trichophyton rubrum
Type: cell-based
Conditions: 120 h, 80% growth inhibition vs negative control, RPMI 1640, read five days after application
metric-name: MIC80

compound: C[C@@H](N1CCC(Nc2ccc(Cl)cn2)CC1)[C@](O)(Cn1cncn1)c1ccc(F)cc1F
MIC80: ≤ 0.125 µg/mL

compound: C[C@@H](N1CCC(Nc2ccc(F)cn2)CC1)[C@](O)(Cn1cncn1)c1ccc(F)cc1F
MIC80: ≤ 0.125 µg/mL

compound: C[C@@H](N1CCC(Nc2ccc(Cl)cc2)CC1)[C@](O)(Cn1cncn1)c1ccc(F)cc1F
MIC80: ≤ 0.125 µg/mL

compound: C[C@@H](N1CCC(Oc2ccc(F)cc2)CC1)[C@](O)(Cn1cncn1)c1ccc(F)cc1F
MIC80: ≤ 0.125 µg/mL

compound: C[C@@H](NC1CCN(c2ncc(Br)cn2)CC1)[C@](O)(Cn1cncn1)c1ccc(F)cc1F
MIC80: ≤ 0.125 µg/mL

compound: C[C@@H](N1CCC(Nc2ncc(F)cn2)CC1)[C@](O)(Cn1cncn1)c1ccc(F)cc1F
MIC80: 0.015 µg/mL

compound: C[C@@H](NC1CCN(c2ccc(F)cc2)CC1)[C@](O)(Cn1cncn1)c1ccc(F)cc1F
MIC80: ≤ 0.125 µg/mL

compound: C[C@@H](N1CCC(Oc2ncccn2)CC1)[C@](O)(Cn1cncn1)c1ccc(F)cc1F
MIC80: ≤ 0.125 µg/mL

Would you be so kind as to report MIC80 for each listed record?
1. C[C@@H](N1CCC(Oc2ncc(Br)cn2)CC1)[C@](O)(Cn1cncn1)c1ccc(F)cc1F
2. C[C@@H](NC1CCN(c2ncc(F)cn2)CC1)[C@](O)(Cn1cncn1)c1ccc(F)cc1F
3. C[C@@H](NC1CCN(c2ccc(Cl)cc2)CC1)[C@](O)(Cn1cncn1)c1ccc(F)cc1F
4. C[C@@H](c1ncncc1F)[C@](O)(Cn1cncn1)c1ccc(F)cc1F [Voriconazole, reference compound]
5. OC(Cn1cncn1)(Cn1cncn1)c1ccc(F)cc1F [Fluconazole, reference compound]

Solution:
1: 0.031 µg/mL; 2: 0.015 µg/mL; 3: ≤ 0.125 µg/mL; 4: ≤ 0.125 µg/mL; 5: 4 µg/mL

---

Exercise: state measured MIC80 for each of the molecules provided.
Tested on: Aspergillus fumigatus
Assay: in vitro antifungal activity (MIC80), Aspergillus fumigatus
Assay type: cell-based
Conditions: 80% growth inhibition vs negative control, RPMI 1640, read 48 hrs after application
One number for each entry, in µg/mL.

Past entries and their recorded results:
molecule: C[C@@H](N1CCC(Oc2ccc(C(F)(F)F)cc2)CC1)[C@](O)(Cn1cncn1)c1ccc(F)cc1F
tested-system: Aspergillus fumigatus
readout-number: 1

molecule: Cc1cc(C(F)(F)F)cnc1N1CCC(N[C@H](C)[C@](O)(Cn2cncn2)c2ccc(F)cc2F)CC1
tested-system: Aspergillus fumigatus
readout-number: 1

molecule: C[C@@H](N1CCC(Nc2ncc(F)cn2)CC1)[C@](O)(Cn1cncn1)c1ccc(F)cc1F
tested-system: Aspergillus fumigatus
readout-number: 0.25

molecule: C[C@@H](NC1CCN(c2ncc(F)cn2)CC1)[C@](O)(Cn1cncn1)c1ccc(F)cc1F
tested-system: Aspergillus fumigatus
readout-number: 1

molecule: C[C@@H](NC1CCN(c2ncc(Br)cn2)CC1)[C@](O)(Cn1cncn1)c1ccc(F)cc1F
tested-system: Aspergillus fumigatus
readout-number: 1

molecule: C[C@@H](N1CCC(Oc2ncccn2)CC1)[C@](O)(Cn1cncn1)c1ccc(F)cc1F
tested-system: Aspergillus fumigatus
readout-number: 1

I need MIC80 for every entry listed below, if you could help.
1. C[C@@H](N1CCC(Nc2ccc(Cl)cn2)CC1)[C@](O)(Cn1cncn1)c1ccc(F)cc1F
2. C[C@@H](NC1CCN(c2ccc(F)cc2)CC1)[C@](O)(Cn1cncn1)c1ccc(F)cc1F
3. C[C@@H](c1ncncc1F)[C@](O)(Cn1cncn1)c1ccc(F)cc1F [Voriconazole, reference compound]
4. C[C@@H](NC1CCN(c2ccc(Cl)cc2)CC1)[C@](O)(Cn1cncn1)c1ccc(F)cc1F
5. C[C@@H](N1CCC(Nc2ccc(F)cn2)CC1)[C@](O)(Cn1cncn1)c1ccc(F)cc1F

Solution:
0.25
0.25
0.25
0.25
0.125
